Tested on: ACHN renal
Assay info: NCI-60 one-dose screen, 48 h (100 = growth as untreated, 0 = no growth, -100 = all killed)
Measurement context: 10 µM
The panel holds about 83,000 compounds, 20% with a hit somewhere; the sample as a whole holds those more often.
Parameter growth: see the listing below.
Return type: number; implicit unit %.

Record CC/C(C)=C(\C)C(=O)O . Reported growth: 116

Record COc1ccc(-c2nc(-c3nc4ccc(Cl)cc4[nH]3)c3ccccn23)cc1 . Reported growth: 0.296

Record N#CCCN(NC(=O)OCc1ccccc1)C(=O)OCc1ccccc1 . Reported growth: 102

Record COc1ccc(-c2csc(NC(=O)CSc3nc(C)c(-c4ccccc4)n3Nc3ccccc3)n2)cc1 . Reported growth: 59

Record O=C(NC(Cc1ccc(O)cc1)C(=O)N=Nc1c(O)[nH]c2ccccc12)c1ccccc1 (stereo unspecified) . Reported growth: 114

Record COc1ccc(/C=C/C(=O)Nc2ccc(-c3nc4ccc(OC)cc4s3)cc2)cc1 . Reported growth: 114

Record CN(C)N=Nc1nn(C(=O)Nc2ccc(Cc3ccccc3)cc2)c2ccccc12 . Reported growth: 34.3

Record C=C(Cl)[C@@](Cl)(CBr)CC[C@@H](Br)C(C)(C)Cl . Reported growth: -99.4

Record O=C1OCC2=C1C(c1ccc(Cl)c(Cl)c1)c1cc3c(cc1N2CCO)OCCO3 (stereo unspecified) . Reported growth: 46.2

Record O=C(O)c1ccc(Cl)cc1Nc1ccc(F)cc1 . Reported growth: 82.4

Next:
Record CCC(=O)N1C/C(=C/c2ccc(Cl)cc2)C(=O)/C(=C/c2ccc(Cl)cc2)C1 . Reported growth: -50.7

Record CC(C)(C)NC/C(=C\c1ccccc1)C(=O)c1ccccc1 . Reported growth: -50.9

Record COc1ccc2c(c1)N(CCO)C1=C(C(=O)OC1)C2c1ccc(OC)c(OC)c1 (stereo unspecified) . Reported growth: 43.7

Record CCCCCCCCCCCCCCCC(=O)OC1[C@@H](OC(=O)CCCCCCCCCCCCCCC)[C@@H](C(=O)N[C@@H](CCCCN)C(=O)OC)O[C@H]1n1cnc2c(=O)[nH]c(NC(=O)C(C)C)nc21 (stereo partly specified) . Reported growth: 102

Record COC(=O)C1(C)Cc2cc(OC(C)=O)c(OC(C)=O)cc2N1 (stereo unspecified) . Reported growth: 27.3

Record CCc1ccc2c(c1)N(CCO)C1=C(C(=O)OC1)C2c1cc(OC)c(OC)c(OC)c1 (stereo unspecified) . Reported growth: 32.2

Record CN(C)CCOc1nc2ccccc2c2c1-c1ccc(Cl)cc1C2=O . Reported growth: 10.1

Record CC(=O)CSC(C)=O . Reported growth: 97.8

Record COc1cc(NC(=O)CSc2nc3ccccc3c(=O)n2CCc2ccccc2)cc(OC)c1OC . Reported growth: -41.6

Record O=C(Nc1ccc(Cl)c(Cl)c1)Nc1c(Oc2ccc(Cl)c(Cl)c2)ccc(Cl)c1S(=O)(=O)O . Reported growth: 61.2

Record COc1cc2nc(Nc3cccc(C(=O)O)c3)nc(N)c2cc1OC . Reported growth: 93.9
